Recorded IC50, Abeta x-40 in mouse cortical neurons by entry
Molecular target: BACE1 in primary mouse cortical neurons (mouse, UniProt P56818 46-501)
Sequence (P56818 46-501): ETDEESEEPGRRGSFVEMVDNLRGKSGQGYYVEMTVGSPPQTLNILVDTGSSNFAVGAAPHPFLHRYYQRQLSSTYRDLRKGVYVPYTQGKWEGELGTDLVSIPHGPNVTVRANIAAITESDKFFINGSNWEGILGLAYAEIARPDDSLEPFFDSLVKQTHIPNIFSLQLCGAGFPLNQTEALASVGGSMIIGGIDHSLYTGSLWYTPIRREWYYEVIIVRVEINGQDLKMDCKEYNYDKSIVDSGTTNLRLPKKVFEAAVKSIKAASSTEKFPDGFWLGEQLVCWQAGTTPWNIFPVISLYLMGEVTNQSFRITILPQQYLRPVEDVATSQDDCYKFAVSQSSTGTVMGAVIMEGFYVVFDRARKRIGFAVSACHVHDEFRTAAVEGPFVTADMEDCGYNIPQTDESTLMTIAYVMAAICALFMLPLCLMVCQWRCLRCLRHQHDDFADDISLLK
Test: cell-based or functional assay
Numbers only; they are read as nM.

Completed entries (count: 4):
[[record]]
binder = "6271 (antibody, V domains shown, anti-BACE1 IgG) VH: QVQLVQSGAEVKKPGSSVKVSCKASGGTISGYGISWVRQAPGQGLEWMGNIIPGFGTANYAQKFQGRVTITADESTSTAYMELSSLRSEDTAVYYCARSGGTKYGMLDVWGQGTMVTVSS VL: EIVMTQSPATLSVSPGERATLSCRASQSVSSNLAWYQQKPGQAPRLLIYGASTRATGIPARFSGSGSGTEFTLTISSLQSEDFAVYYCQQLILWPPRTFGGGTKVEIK"
observedvalue = 1.77

[[record]]
binder = "5987 (antibody, V domains shown, anti-BACE1 IgG) VH: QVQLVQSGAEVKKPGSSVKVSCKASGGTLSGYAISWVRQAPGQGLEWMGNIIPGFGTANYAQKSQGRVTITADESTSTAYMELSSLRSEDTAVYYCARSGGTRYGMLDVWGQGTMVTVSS VL: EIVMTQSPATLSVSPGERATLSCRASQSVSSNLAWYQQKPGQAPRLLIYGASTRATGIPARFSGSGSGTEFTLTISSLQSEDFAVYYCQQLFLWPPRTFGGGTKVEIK"
observedvalue = 7.2

[[record]]
binder = "6270 (antibody, V domains shown, anti-BACE1 IgG) VH: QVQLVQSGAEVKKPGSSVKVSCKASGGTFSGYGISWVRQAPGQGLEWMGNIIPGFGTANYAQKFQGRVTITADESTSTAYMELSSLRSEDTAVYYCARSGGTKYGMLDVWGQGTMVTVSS VL: EIVMTQSPATLSVSPGERATLSCRASQSVSSNLAWYQQKPGQAPRLLIYGASTRATGIPARFSGSGSGTEFTLTISSLQSEDFAVYYCQQLLLWPPRTFGGGTKVEIK"
observedvalue = 4.48

[[record]]
binder = "6294 (antibody, V domains shown, anti-BACE1 IgG) VH: QLQLQESGPGLVKPSETLSLTCTVSGGSISSSSHYWGWIRQPPGKGLEWIGMIYYSGSTWYNPSLKSRVTISVDTSKNQFSLKLSSVTAADTAVYYCARVGHGVSYFDLWGRGTLVTVSS VL: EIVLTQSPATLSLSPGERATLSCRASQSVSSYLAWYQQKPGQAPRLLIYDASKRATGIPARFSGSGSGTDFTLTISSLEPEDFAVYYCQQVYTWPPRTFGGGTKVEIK"
observedvalue = 3.53


Proceeding to the next binder to report its IC50, Abeta x-40 in mouse cortical neurons.
Challenge: Param item = anti-BACE1 antibody 6266 (antibody, V domains shown, Fully human antibody) VH: EVQLVQSGAEVKKPGSSVKVSCKASGGTLSGYGVSWVRQAPGQGLEWMGNIIPGFGTANYAQKFQGRVTITADESTSTAYMELSSLRSEDTAVYYCARSGGTKYGMLDVWGQGTMVTVSS VL: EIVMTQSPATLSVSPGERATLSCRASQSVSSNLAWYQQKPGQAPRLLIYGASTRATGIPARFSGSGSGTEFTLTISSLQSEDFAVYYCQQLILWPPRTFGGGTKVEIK ; retrieve measured IC50, Abeta x-40 in mouse cortical neurons.
Response given: 1.66
